Where do the numbers come from? From paper PMC11378702.

System: A431
protocol-description: MTT anti-proliferative assay, A431 cells
Format: cell-based, human
condition-label: Homo sapiens, A-431, 48 h, read-out: IC50 (μM) A431
reported-endpoint: IC50 (µM)
The reply should contain only the number, in µM.

Could you share which IC50 value was measured for N#CC(=NNc1ccc(S(=O)(=O)Nc2ncccn2)cc1)C(N)=C(C#N)C#N [Compound 11] ?
15.1

---

target-or-system: EGFR^T790M (Homo sapiens, UniProt P00533, T790M)
Sequence (P00533 25-1210 T790M): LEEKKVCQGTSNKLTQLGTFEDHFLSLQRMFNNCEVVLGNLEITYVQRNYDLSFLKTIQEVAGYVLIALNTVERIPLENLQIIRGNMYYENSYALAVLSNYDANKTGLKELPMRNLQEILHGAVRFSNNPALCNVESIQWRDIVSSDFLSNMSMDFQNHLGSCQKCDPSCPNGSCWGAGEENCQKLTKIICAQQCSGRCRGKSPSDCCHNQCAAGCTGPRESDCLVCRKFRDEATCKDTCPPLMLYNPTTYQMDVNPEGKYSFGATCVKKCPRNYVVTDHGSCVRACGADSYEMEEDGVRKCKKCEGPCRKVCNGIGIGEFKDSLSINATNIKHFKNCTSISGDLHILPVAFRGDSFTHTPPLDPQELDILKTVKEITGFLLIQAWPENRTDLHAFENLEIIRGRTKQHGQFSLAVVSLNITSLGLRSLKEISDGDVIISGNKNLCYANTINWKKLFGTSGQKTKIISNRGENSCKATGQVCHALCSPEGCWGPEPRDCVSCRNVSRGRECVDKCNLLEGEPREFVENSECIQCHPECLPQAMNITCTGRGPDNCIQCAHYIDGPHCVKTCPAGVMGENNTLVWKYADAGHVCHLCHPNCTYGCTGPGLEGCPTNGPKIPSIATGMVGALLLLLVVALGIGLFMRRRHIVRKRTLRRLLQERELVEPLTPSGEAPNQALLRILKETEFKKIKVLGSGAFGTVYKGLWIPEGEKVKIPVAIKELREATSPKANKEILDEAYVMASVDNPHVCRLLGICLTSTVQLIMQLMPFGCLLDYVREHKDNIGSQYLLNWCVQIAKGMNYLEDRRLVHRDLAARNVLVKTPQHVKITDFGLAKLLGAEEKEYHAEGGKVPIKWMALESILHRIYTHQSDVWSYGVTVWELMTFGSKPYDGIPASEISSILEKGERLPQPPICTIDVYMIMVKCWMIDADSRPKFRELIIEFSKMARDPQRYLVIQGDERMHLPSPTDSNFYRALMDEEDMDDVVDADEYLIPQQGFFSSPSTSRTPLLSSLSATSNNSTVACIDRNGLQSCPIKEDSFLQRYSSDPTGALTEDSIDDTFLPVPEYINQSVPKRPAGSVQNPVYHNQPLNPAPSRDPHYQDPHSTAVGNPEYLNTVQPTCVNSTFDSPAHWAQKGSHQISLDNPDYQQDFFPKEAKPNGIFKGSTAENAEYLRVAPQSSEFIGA
protocol-description: biochemical
So I've got a bunch of molecules here, and I need their pIC50 values.
Remember the convention: pIC50 equals -log10 of concentration in molar.

Provide value of pIC50 for this record tested with EGFR^T790M (Homo sapiens, UniProt P00533, T790M): CC(=O)C(=NNc1ccc(S(=O)(=O)Nc2ncccn2)cc1)C(C)=O [Compound 6]
7.18

Provide value of pIC50 for this record tested with EGFR^T790M (Homo sapiens, UniProt P00533, T790M): CSc1nc(NC(=O)C(=NNc2ccc(S(=O)(=O)Nc3ncccn3)cc2)C(C)=O)cc(N)c1C#N [Compound 14]
7.61

Provide value of pIC50 for this record tested with EGFR^T790M (Homo sapiens, UniProt P00533, T790M): CSC1=NC(=N)C(=NNc2ccc(S(=O)(=O)Nc3ncccn3)cc2)C(N)=C1C#N [Compound 13]
6.67

Provide value of pIC50 for this record tested with EGFR^T790M (Homo sapiens, UniProt P00533, T790M): N#CC(=NNc1ccc(S(=O)(=O)Nc2ncccn2)cc1)C(N)=C(C#N)C#N [Compound 11]
6.88

---

target-or-system: EGFR^WT (Homo sapiens)
Sequence (P00533 25-1210): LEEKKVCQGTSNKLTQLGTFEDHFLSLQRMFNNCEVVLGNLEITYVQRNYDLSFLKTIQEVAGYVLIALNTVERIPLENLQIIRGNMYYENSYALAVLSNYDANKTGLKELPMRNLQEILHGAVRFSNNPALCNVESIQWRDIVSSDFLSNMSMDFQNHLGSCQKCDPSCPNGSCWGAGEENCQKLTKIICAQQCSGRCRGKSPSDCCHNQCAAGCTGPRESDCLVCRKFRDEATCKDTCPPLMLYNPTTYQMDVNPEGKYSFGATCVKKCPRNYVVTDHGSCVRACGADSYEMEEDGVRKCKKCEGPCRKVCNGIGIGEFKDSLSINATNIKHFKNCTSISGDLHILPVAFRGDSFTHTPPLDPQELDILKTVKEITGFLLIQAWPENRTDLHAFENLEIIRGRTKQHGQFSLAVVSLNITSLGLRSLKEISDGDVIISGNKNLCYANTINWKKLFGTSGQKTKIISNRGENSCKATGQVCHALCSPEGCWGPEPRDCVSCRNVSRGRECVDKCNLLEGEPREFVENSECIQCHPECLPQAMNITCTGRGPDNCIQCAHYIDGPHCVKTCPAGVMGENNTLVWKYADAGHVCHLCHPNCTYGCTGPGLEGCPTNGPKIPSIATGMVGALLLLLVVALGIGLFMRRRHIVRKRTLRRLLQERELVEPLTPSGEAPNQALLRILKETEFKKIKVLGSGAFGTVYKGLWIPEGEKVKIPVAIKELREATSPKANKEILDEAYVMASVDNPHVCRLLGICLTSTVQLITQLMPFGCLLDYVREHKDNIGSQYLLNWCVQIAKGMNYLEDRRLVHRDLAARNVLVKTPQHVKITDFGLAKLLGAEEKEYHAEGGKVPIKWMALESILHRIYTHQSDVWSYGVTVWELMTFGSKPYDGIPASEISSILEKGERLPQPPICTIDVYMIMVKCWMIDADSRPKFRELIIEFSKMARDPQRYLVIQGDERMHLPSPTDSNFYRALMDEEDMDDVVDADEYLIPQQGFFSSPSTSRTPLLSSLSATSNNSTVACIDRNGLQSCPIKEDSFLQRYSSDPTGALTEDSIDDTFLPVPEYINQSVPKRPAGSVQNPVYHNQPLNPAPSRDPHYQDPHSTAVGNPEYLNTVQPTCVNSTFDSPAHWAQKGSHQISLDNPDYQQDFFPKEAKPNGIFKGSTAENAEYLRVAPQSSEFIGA
Output true for records whose IC50 is lower than 30 nM, false for records at or above 30 nM.

I wonder whether CSC1=NC(=N)C(=NNc2ccc(S(=O)(=O)Nc3ncccn3)cc2)C(N)=C1C#N has IC50 below 30 nM. Can you tell?
false

I wonder whether N#CC(=NNc1ccc(S(=O)(=O)Nc2ncccn2)cc1)C(N)=S has IC50 below 30 nM. Can you tell?
false

I wonder whether CCC(=O)C(=NNc1ccc(S(=O)(=O)Nc2ncccn2)cc1)C(C)=O has IC50 below 30 nM. Can you tell?
false

I wonder whether CCOC(=O)C(=NNc1ccc(S(=O)(=O)Nc2ncccn2)cc1)C(=O)OCC has IC50 below 30 nM. Can you tell?
true

I wonder whether CCOC(=O)/C(C#N)=N\Nc1ccc(S(=O)(=O)Nc2ncccn2)cc1 has IC50 below 30 nM. Can you tell?
false

I wonder whether CC(=O)C(=NNc1ccc(S(=O)(=O)Nc2ncccn2)cc1)C(C)=O has IC50 below 30 nM. Can you tell?
false

I wonder whether CC(=O)C(=NNc1ccc(S(=O)(=O)Nc2ncccn2)cc1)C(=O)c1ccccc1 has IC50 below 30 nM. Can you tell?
true

I wonder whether CSc1nc(NC(=O)C(=NNc2ccc(S(=O)(=O)Nc3ncccn3)cc2)C(C)=O)cc(N)c1C#N has IC50 below 30 nM. Can you tell?
true

I wonder whether N#CC(=NNc1ccc(S(=O)(=O)Nc2ncccn2)cc1)C(N)=C(C#N)C#N has IC50 below 30 nM. Can you tell?
false

---

target-or-system: EGFR^T790M (Homo sapiens, UniProt P00533, T790M)
protocol-description: biochemical
Format: biochemical
reported-endpoint: IC50

Could you share which IC50 value was measured for N#CC(=NNc1ccc(S(=O)(=O)Nc2ncccn2)cc1)C(N)=S ?
60.8 nM

Could you share which IC50 value was measured for CC(=O)C(=NNc1ccc(S(=O)(=O)Nc2ncccn2)cc1)C(=O)c1ccccc1 ?
9.6 nM

Could you share which IC50 value was measured for CCOC(=O)C(=NNc1ccc(S(=O)(=O)Nc2ncccn2)cc1)C(=O)OCC ?
35.4 nM

Could you share which IC50 value was measured for CCOC(=O)/C(C#N)=N\Nc1ccc(S(=O)(=O)Nc2ncccn2)cc1 ?
17.1 nM

Could you share which IC50 value was measured for CCC(=O)C(=NNc1ccc(S(=O)(=O)Nc2ncccn2)cc1)C(C)=O ?
93.6 nM
